Activity: recorded values
# System: Rattus norvegicus
# method-summary: Anti-inflammatory activity in Rattus norvegicus albino (rat) assessed as reduction of carrageenan-induced paw edema thickness at 0.9 mg/100 g body weight, ip administered 1 hr before carrageenan-challenge measured after 4 hr (reference value: 0.88 +/- 0.03 mm)
# Assay type: functional
Write the answer as a number in mm, unit excluded.

smiles-representation	Activity [mm]
O=c1[nH]c2ccccc2nc1Cc1nnc(S)o1	0.52
O=C(Cc1nc2ccccc2[nH]c1=O)Nn1c(-c2ccccc2)csc1=S	0.52
O=c1[nH]c2ccccc2nc1Cc1nnc(S)n1-c1ccccc1	0.47
Nn1c(S)nnc1Cc1nc2ccccc2[nH]c1=O	0.62
O=C(Cc1nc2ccccc2[nH]c1=O)Nn1c(-c2ccc(Cl)cc2)csc1=S	0.45
Cc1ccc(-c2cc(C(F)(F)F)nn2-c2ccc(S(N)(=O)=O)cc2)cc1	0.5
Cc1ccc(-c2csc(=S)n2NC(=O)Cc2nc3ccccc3[nH]c2=O)cc1	0.55

Could you now look at the following compound, please?
Which Activity value is on record for CCn1c(S)nnc1Cc1nc2ccccc2[nH]c1=O ?
0.67

###

zone of inhibition at 10000 µg/mL: recorded values
# Test system: Escherichia coli
# method-summary: Antibacterial activity against Escherichia coli at 10 mg/ml by cup-plate technique
# Type: functional
# test-settings: read-out: DIZ
Write the answer as a number in mm, unit excluded.

Below are worked cases with known answers.
compound	measure-unit	zone of inhibition at 10000 µg/mL
Cc1ccc(N/N=C/C2=NC3CCCCC3NC2=O)cc1 (stereo unspecified)	mm	5
O=C1NC2CCCCC2N=C1/C=N/Nc1ccc(F)cc1 (stereo unspecified)	mm	7
C=CCNC(=S)NNC(=O)CC1=NC2CCCCC2NC1=O (stereo unspecified)	mm	9
O=C(CC1=NC2CCCCC2NC1=O)NN1C(=O)c2ccccc2C1=O (stereo unspecified)	mm	6
O=C1NC2CCCCC2N=C1/C=N/Nc1ccc(Cl)cc1 (stereo unspecified)	mm	6

Which zone of inhibition at 10000 µg/mL value is on record for O=C(O)c1cn(C2CC2)c2cc(N3CCNCC3)c(F)cc2c1=O ?
12

###

# Test system: Rattus norvegicus
# method-summary: Gastrointestinal toxicity in Rattus norvegicus albino (rat) assessed as incidence of gastric ulceration at 0.9 mg/100 g body weight, po qd
# Assay type: organism-based, Stomach
# test-settings: in vivo
readout: Activity (%)
Write the answer as a number in %, unit excluded.

Below are worked cases with known answers.
smiles-representation	tested-system	Activity (%)
O=C(Cc1nc2ccccc2[nH]c1=O)Nn1c(-c2ccc(Cl)cc2)csc1=S	Rattus norvegicus	0
Nn1c(S)nnc1Cc1nc2ccccc2[nH]c1=O	Rattus norvegicus	0

Which Activity value is on record for O=C(Cc1nc2ccccc2[nH]c1=O)Nn1c(-c2ccccc2)csc1=S ?
80

Which Activity value is on record for Cc1ccc(-c2csc(=S)n2NC(=O)Cc2nc3ccccc3[nH]c2=O)cc1 ?
0

Which Activity value is on record for COc1ccc2c(c1)c(CC(=O)O)c(C)n2C(=O)c1ccc(Cl)cc1 ?
100

###

# Tested on: Rattus norvegicus
# method-summary: Gastrointestinal toxicity in Rattus norvegicus albino (rat) assessed as incidence of gastric ulceration at 0.9 mg/100 g body weight, po qd
# Assay type: organism-based, Stomach
# test-settings: in vivo
Activity: recorded values
Write the answer as a number in %, unit excluded.

Below are worked cases with known answers.
compound	measure-unit	Activity
O=c1[nH]c2ccccc2nc1Cc1nnc(S)o1	%	80
Cc1ccc(-c2cc(C(F)(F)F)nn2-c2ccc(S(N)(=O)=O)cc2)cc1 [CELECOXIB]	%	0
O=c1[nH]c2ccccc2nc1Cc1nnc(S)n1-c1ccccc1	%	0

Could you now look at the following compound, please?
Which Activity value is on record for CCn1c(S)nnc1Cc1nc2ccccc2[nH]c1=O ?
0

Data provenance is ChEMBL document CHEMBL3045991.
